# TARGET OF ASSAY: MvfR protein (MvfRC87) (Pseudomonas aeruginosa, UniProt Q9I4X0)
# Construct: The MvfRC87 protein purified as in Xiao et. al., 2006; made in house
# Sequence (Q9I4X0 87-332): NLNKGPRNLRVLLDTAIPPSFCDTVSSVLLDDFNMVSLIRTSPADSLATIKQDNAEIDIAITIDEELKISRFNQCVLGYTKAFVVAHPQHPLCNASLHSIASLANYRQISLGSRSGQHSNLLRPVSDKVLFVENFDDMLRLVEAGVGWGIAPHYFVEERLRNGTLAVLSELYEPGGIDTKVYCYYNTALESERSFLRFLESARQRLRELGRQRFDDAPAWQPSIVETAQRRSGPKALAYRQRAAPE
# Type: binding
# SETUP CONDITIONS: SPR; Concentration 1.00E-06 M
Response Unit (RU) overview
MEASUREMENT LABEL: Response Unit (RU)

[[record]]
compound = "N#Cc1ccc(NC(=O)CC(=O)Nc2cccc(Cl)c2)cc1 [D71]"
readout_number = 19.5

[[record]]
compound = "N#Cc1ccc(NC(=O)CC(=O)Nc2ccc(Cl)cc2)cc1 [D41]"
readout_number = 22.7

[[record]]
compound = "N#Cc1ccc(NC(=O)CC(=O)Nc2ccc(Br)cc2)cc1 [D42]"
readout_number = 23

[[record]]
compound = "N#Cc1ccc(NC(=O)C(F)C(=O)Nc2ccc(Oc3ccccc3)cc2)cc1 (stereo not shown) [D88]"
readout_number = 18.2

[[record]]
compound = "CC(C(=O)Nc1ccc(C#N)cc1)C(=O)Nc1ccc(C#N)cc1 [D80]"
readout_number = 22.9

[[record]]
compound = "N#Cc1ccc(NC(=O)CC(=O)Nc2ccc(C#N)nc2)cc1 [D77]"
readout_number = 19.8

[[record]]
compound = "N#Cc1ccc(NC(=O)CC(=O)Nc2ccc(Oc3ccccc3)cc2)cc1 [D57]"
readout_number = 18

[[record]]
compound = "N#Cc1ccc(NC(=O)CC(=O)Nc2ccc(C(F)(F)F)cc2)cc1 [D69]"
readout_number = 22.4

[[record]]
compound = "Cc1cc(F)ccc1NCC(=O)Nc1ccc(C#N)cc1 [M17]"
readout_number = 6.7

[[record]]
compound = "N#Cc1ccc(NC(=O)CC(=O)Nc2ccc(C#N)cc2)cc1 [D43]"
readout_number = 22.5

